Some compounds, each annotated with its measured AC50.
molecular target: Prostaglandin G/H synthase 1 (Homo sapiens, UniProt P23219); type: functional; further: assay procedure not described here
Sequence (P23219 whole entry): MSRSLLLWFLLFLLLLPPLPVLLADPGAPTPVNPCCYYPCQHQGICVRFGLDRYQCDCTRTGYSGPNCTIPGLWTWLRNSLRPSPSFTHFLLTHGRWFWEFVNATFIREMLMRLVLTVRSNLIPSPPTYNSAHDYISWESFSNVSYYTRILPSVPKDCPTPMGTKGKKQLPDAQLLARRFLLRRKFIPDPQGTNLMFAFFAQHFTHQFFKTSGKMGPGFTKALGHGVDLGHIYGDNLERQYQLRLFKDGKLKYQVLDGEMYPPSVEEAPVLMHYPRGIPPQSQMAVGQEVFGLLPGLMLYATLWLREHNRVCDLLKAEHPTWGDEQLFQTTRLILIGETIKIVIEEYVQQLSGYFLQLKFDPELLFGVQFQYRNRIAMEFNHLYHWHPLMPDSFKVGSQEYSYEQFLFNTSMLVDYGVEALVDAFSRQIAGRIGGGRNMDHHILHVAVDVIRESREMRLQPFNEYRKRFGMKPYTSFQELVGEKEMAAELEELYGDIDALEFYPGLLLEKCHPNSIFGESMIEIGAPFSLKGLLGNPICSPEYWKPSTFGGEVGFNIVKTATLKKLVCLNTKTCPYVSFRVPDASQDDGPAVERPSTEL

Worked cases, AC50 given:
O=C(O)CCn1c2c(c3ccccc31)C[C@H](NS(=O)(=O)c1ccc(F)cc1)CC2 :: > 30 µM
OCCN1CCN(CCCN2c3ccccc3C=Cc3ccccc32)CC1 :: > 30 µM

Lab book: AC50 of CCCC1C(=O)N2C(N(C)C)=Nc3ccc(C)cc3N2C1=O (stereo not given) noted as 8.41 µM

Lab book: AC50 of O=C1CC[C@@]2(O)[C@H]3Cc4ccc(O)c5c4[C@@]2(CCN3CC2CC2)[C@H]1O5 [NALTREXONE] noted as > 30 µM

Lab book: AC50 of CC(C)C(=O)Nc1ccc([N+](=O)[O-])c(C(F)(F)F)c1 [FLUTAMIDE] noted as > 30 µM

Lab book: AC50 of CCCC[N+]1(C)[C@@H]2C[C@@H](OC(=O)[C@H](CO)c3ccccc3)C[C@H]1[C@@H]1O[C@@H]12 (stereo not given in full) noted as > 30 µM

Lab book: AC50 of O=C1CN=C(c2ccccc2)c2c(sc3c2CCCC3)N1 noted as > 30 µM

----------
molecular target: cGMP-inhibited 3',5'-cyclic phosphodiesterase 3A (Homo sapiens, UniProt Q14432); type: functional; further: assay procedure not described here
Sequence (Q14432 whole entry): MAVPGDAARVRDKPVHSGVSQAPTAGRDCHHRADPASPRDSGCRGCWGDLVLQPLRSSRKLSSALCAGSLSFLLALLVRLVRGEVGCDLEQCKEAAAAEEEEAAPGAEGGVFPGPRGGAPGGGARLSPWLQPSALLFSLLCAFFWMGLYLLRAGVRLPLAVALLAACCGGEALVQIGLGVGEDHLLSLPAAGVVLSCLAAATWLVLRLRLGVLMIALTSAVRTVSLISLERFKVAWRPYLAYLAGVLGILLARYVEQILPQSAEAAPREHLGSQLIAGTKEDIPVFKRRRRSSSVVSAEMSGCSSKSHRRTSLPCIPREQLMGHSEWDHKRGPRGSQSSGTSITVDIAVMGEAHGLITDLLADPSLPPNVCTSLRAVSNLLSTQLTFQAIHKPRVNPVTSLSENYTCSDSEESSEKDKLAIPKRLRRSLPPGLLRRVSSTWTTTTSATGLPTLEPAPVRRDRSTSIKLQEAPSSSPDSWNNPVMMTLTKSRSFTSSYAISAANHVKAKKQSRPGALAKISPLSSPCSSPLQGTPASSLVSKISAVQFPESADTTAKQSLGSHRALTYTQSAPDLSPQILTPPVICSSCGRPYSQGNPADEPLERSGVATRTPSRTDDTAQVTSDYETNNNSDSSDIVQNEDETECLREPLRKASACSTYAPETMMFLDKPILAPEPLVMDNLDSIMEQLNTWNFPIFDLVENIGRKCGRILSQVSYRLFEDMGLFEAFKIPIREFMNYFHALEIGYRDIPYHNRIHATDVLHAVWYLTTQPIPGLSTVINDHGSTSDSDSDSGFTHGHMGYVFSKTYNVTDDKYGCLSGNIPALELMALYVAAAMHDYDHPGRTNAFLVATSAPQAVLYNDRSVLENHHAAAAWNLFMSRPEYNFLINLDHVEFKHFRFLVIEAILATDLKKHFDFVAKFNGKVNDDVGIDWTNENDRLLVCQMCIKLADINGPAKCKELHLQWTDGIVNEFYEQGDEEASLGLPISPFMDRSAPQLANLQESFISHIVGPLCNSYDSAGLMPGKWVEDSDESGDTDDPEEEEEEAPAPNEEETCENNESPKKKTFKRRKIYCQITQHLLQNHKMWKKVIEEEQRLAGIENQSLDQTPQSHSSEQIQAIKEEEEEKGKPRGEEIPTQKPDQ
quantity: AC50

C[N+](C)(C)CCOC(N)=O [CARBAMOYLCHOLINE] :: > 30 µM
CCOC(=O)[C@H](CCc1ccccc1)N[C@H]1CCCN2CCC[C@@H](C(=O)O)N2C1=O [CILAZAPRIL] :: > 30 µM
COc1cc2c(cc1OC)C(=O)C(CC1CCN(Cc3ccccc3)CC1)C2 (stereo not drawn) [DONEPEZIL] :: > 30 µM

Lab book: AC50 of Cc1cc(-c2ccccc2)nnc1NCCN1CCOCC1 [MINAPRINE] noted as > 30 µM

Lab book: AC50 of CCOc1cc(N)c([N+](=O)[O-])cc1C(=O)NC1CCN(CC2CC=CCC2)CC1 (stereo not drawn) [CINITAPRIDE] noted as > 30 µM

Lab book: AC50 of COC(=O)N[C@H](C(=O)N[C@@H](Cc1ccccc1)[C@@H](O)CN(Cc1ccc(-c2ccccn2)cc1)NC(=O)[C@@H](NC(=O)OC)C(C)(C)C)C(C)(C)C [ATAZANAVIR] noted as > 30 µM

Lab book: AC50 of CS(=O)(=O)Nc1cc2occ(NC=O)c(=O)c2cc1Oc1ccccc1 [IGURATIMOD] noted as > 30 µM

Lab book: AC50 of COCC1=C(C(=O)OC(C)OC(=O)OC(C)C)N2C(=O)[C@@H](NC(=O)/C(=N\OC)c3csc(N)n3)[C@H]2SC1 (stereo partly drawn) [CEFPODOXIME PROXETIL] noted as > 30 µM

----------
molecular target: 5-hydroxytryptamine receptor 2A (Homo sapiens); format: functional, cell-based; further: assay procedure not described here
Sequence (P28223 whole entry): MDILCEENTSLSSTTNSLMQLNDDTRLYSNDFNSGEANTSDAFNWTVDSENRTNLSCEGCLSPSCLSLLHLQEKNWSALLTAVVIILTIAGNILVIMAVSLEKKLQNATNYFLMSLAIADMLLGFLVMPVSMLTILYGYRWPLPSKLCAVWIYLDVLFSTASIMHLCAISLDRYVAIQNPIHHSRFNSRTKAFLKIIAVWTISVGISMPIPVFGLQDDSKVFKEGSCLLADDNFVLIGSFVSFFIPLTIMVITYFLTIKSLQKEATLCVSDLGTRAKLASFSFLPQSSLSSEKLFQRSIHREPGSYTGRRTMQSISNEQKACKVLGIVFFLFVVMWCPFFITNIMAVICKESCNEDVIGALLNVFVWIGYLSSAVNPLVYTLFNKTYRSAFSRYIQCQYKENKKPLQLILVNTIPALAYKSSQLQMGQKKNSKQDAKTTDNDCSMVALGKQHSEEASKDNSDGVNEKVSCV
Some compounds, each annotated with its measured AC50.

O=C(NC[C@H]1CN(c2ccc(N3CCOCC3=O)cc2)C(=O)O1)c1ccc(Cl)s1 [RIVAROXABAN] :: > 30 µM

--- query ---
Lab book: AC50 of CC(Cc1ccccc1)NCCC(c1ccccc1)c1ccccc1 (stereo unspecified) [PRENYLAMINE] noted as > 30 µM

----------
Reported AC50 values, Sodium-dependent noradrenaline transporter (Homo sapiens, UniProt P23975).

Summary: COc1ccc2cccc(CCNC(C)=O)c2c1 , Sodium-dependent noradrenaline transporter (Homo sapiens, UniProt P23975), AC50 = > 10 µM

Summary: CN1C(=O)CC(=O)N(c2ccccc2)c2cc(Cl)ccc21 , Sodium-dependent noradrenaline transporter (Homo sapiens, UniProt P23975), AC50 = > 10 µM

Summary: O=C(O)Cc1cn(-c2ccccc2)nc1-c1ccc(Cl)cc1 , Sodium-dependent noradrenaline transporter (Homo sapiens, UniProt P23975), AC50 = > 30 µM

Summary: CN1CCc2cccc3c2[C@H]1Cc1ccc(O)c(O)c1-3 , Sodium-dependent noradrenaline transporter (Homo sapiens, UniProt P23975), AC50 = > 30 µM

Summary: CCN(CC)CCNC(=O)c1cc(Cl)c(N)cc1OC [METOCLOPRAMIDE] , Sodium-dependent noradrenaline transporter (Homo sapiens, UniProt P23975), AC50 = > 10 µM

----------
Target: UniProtKB Q99808
Sequence (Q99808 whole entry): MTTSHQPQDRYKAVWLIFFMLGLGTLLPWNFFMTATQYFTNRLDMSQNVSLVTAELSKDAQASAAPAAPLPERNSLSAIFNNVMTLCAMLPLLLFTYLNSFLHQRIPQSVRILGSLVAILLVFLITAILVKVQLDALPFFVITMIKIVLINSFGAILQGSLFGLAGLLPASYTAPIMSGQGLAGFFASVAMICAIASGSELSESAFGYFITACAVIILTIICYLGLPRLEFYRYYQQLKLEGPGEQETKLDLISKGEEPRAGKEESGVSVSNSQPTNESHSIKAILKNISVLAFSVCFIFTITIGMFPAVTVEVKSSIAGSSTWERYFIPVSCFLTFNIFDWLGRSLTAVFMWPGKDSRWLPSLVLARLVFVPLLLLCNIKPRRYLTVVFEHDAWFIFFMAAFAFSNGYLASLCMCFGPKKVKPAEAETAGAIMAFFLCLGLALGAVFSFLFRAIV
quantity: AC50

Worked cases, AC50 given:
COc1ccc2cccc(CCNC(C)=O)c2c1 [AGOMELATINE] :: > 30 µM
CCCCCOC(=O)Nc1nc(=O)n([C@@H]2O[C@H](C)[C@@H](O)[C@H]2O)cc1F [CAPECITABINE] :: > 30 µM
COC(=O)C1=C(C)NC(C)=C(C(=O)OCC(C)C)C1c1ccccc1[N+](=O)[O-] (stereo not drawn) [NISOLDIPINE] :: > 10 µM
Oc1ncnc2[nH]ncc12 [ALLOPURINOL] :: > 30 µM

--- query ---
Lab book: AC50 of CCCCCCCCOc1ccccc1C(=O)Nc1ccc(C(=O)OCC[N+](C)(CC)CC)cc1 [OTILONIUM BROMIDE] noted as 17 µM

----------
Reported AC50 values, Gamma-aminobutyric acid receptor subunit alpha-1 (Rattus norvegicus).

COCC1=C(C(=O)OC(C)OC(=O)OC(C)C)N2C(=O)[C@@H](NC(=O)/C(=N\OC)c3csc(N)n3)[C@H]2SC1 (stereo partly drawn) :: > 30 µM
COc1cc2c(cc1OC)C(=O)C(CC1CCN(Cc3ccccc3)CC1)C2 (stereo not drawn) :: > 10 µM
Cc1c(O)c(=O)ccn1C :: > 30 µM
C#CCN(C)[C@H](C)Cc1ccccc1 :: > 10 µM
Oc1ncnc2[nH]ncc12 :: > 10 µM

Summary: CN1CCN(C(=O)OC2c3nccnc3C(=O)N2c2ccc(Cl)cn2)CC1 (stereo not drawn) , Gamma-aminobutyric acid receptor subunit alpha-1 (Rattus norvegicus), AC50 = > 10 µM

Summary: N[C@@H](CSCC(=O)O)C(=O)O , Gamma-aminobutyric acid receptor subunit alpha-1 (Rattus norvegicus), AC50 = > 30 µM

Summary: CCCS(=O)(=O)Nc1ccc(F)c(C(=O)c2c[nH]c3ncc(-c4ccc(Cl)cc4)cc23)c1F , Gamma-aminobutyric acid receptor subunit alpha-1 (Rattus norvegicus), AC50 = > 30 µM

----------
Some compounds, each annotated with its measured AC50.
target: Muscarinic acetylcholine receptor M2 (Homo sapiens, UniProt P08172); assay type: functional, cell-based; further: assay procedure not described here
Sequence (P08172 whole entry): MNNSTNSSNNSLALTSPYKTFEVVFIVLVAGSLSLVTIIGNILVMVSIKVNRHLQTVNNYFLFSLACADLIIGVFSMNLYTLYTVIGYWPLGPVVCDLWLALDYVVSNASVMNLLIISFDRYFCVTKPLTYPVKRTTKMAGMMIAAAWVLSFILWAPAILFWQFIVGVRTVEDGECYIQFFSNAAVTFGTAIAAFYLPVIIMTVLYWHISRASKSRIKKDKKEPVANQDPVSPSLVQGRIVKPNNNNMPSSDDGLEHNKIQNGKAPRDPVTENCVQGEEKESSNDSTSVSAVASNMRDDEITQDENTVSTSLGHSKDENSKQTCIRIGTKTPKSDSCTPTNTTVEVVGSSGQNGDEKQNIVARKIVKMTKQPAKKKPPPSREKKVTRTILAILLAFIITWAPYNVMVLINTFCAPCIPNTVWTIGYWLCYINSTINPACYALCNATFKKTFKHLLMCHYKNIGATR

Worked cases, AC50 given:
O=C(O)Cc1cn(-c2ccccc2)nc1-c1ccc(Cl)cc1 [LONAZOLAC] :: > 30 µM
CN(C)C(=O)OC1N=C(c2ccccc2)c2cc(Cl)ccc2N(C)C1=O (centres undefined) [CAMAZEPAM] :: > 10 µM
Cc1c(Cl)cccc1Nc1ccccc1C(=O)O [TOLFENAMIC ACID] :: > 30 µM

Lab book: AC50 of CC(=O)O[C@@]12CO[C@@H]1C[C@H](O)[C@@]1(C)C(=O)[C@H](O)C3=C(C)[C@@H](OC(=O)[C@H](O)[C@@H](NC(=O)OC(C)(C)C)c4ccccc4)C[C@@](O)([C@@H](OC(=O)c4ccccc4)[C@H]21)C3(C)C [DOCETAXEL ANHYDROUS] noted as > 30 µM

Lab book: AC50 of CN1CCc2cccc3c2[C@H]1Cc1ccc(O)c(O)c1-3 [APOMORPHINE] noted as > 10 µM

Lab book: AC50 of CCCC(CCC)C(=O)O[C@H]1C[C@H]2CC[C@@H](C1)[N+]2(C)C [ANISOTROPINE] noted as > 30 µM

Lab book: AC50 of Cc1c(O)c(=O)ccn1C [DEFERIPRONE] noted as > 30 µM

Lab book: AC50 of CC(C)(Oc1ccc(C2CC2(Cl)Cl)cc1)C(=O)O (centres undefined) [CIPROFIBRATE] noted as > 30 µM

Lab book: AC50 of CCCCCCC(C)(C)c1cc(O)c2c(c1)OC(C)(C)C1CCC(=O)CC21 (centres undefined) [NABILONE] noted as > 30 µM

FYI, the data here is from ChEMBL document CHEMBL5291721.
